tested on: DU-145 prostate; assay: NCI-60 one-dose screen, 48 h (100 = growth as untreated, 0 = no growth, -100 = all killed); conditions: 10 µM
About 83,000 compounds went through this panel and 20% of them were active in at least one assay; those are over-represented in the sample as a whole.
Recorded growth values for a group of compounds are listed next.

compound	system.under.test	growth [%]
COc1cc(OC)c(S(=O)(=O)N(CCCl)CCCl)cc1C(=O)/C=C/c1ccc(Cl)cc1	DU-145 prostate	68.8
COc1cc2c(O[C@@H]3OC[C@H](OC(C)=O)[C@H](OC(C)=O)[C@H]3O)c3c(c(-c4ccc5c(c4)OCO5)c2cc1OC)C(=O)OC3	DU-145 prostate	43
CC(=O)O[C@@H]1[C@@H]2O[C@H]2[C@@](C)(O)C(=O)[C@@H](C)C/C=C/[C@H]2[C@@H]3O[C@]3(C)[C@@H](C)C3[C@H](Cc4ccccc4)NC(=O)[C@@]312 (some centres not stated)	DU-145 prostate	50.2
CC1=C2C(=C[C@@](C)(COC(=O)c3ccc(S(=O)(=O)F)cc3)[C@@H]2O)C(=O)[C@](C)(O)C12CC2	DU-145 prostate	-20.4
CC1=C[C@H]2O[C@@H]3C[C@@H](O)[C@](C)([C@@]2(C)CC1)[C@@]31CO1	DU-145 prostate	19.4
COc1cc2c(O[C@@H]3OC[C@H](O)[C@H](O)[C@H]3O)c3c(c(-c4ccc5c(c4)OCO5)c2cc1OC)C(=O)OC3	DU-145 prostate	53.2
C=C1[C@@H](C)C2[C@H](Cc3ccccc3)NC(=O)[C@]23[C@H](OC(C)=O)/C=C/[C@@](C)(O)C(=O)[C@@H](C)C/C=C/[C@H]3[C@@H]1O (some centres not stated)	DU-145 prostate	48

---

tested on: HT29 colon; experiment: NCI-60 one-dose screen, 48 h (100 = growth as untreated, 0 = no growth, -100 = all killed); settings: 10 µM
The panel holds about 83,000 compounds, 20% with a hit somewhere; the sample as a whole holds those more often.
In this section, each of the compounds is paired with its reported growth.
measurement.kind: growth (%)

smiles.entry	measurement.kind	output.unit	recorded.number
COc1cccc2c1cc([N+](=O)[O-])c1c(C(=O)O)cc3c(c12)OCO3	growth	%	0.133
CC1=C2C(=C[C@@](C)(COS(C)(=O)=O)[C@@H]2O)C(=O)[C@](C)(O)C12CC2	growth	%	3.64
C/C=C\C(=O)O[C@@H]1CC2O[C@@H]3C=C(C)C(=O)C[C@]3(C)[C@]1(C)[C@]21CO1	growth	%	-33.4
CC1=C2C(=C[C@@](C)(COC(=O)c3ccc(S(=O)(=O)F)cc3)[C@@H]2OC(=O)c2ccc(S(=O)(=O)F)cc2)C(=O)[C@](C)(O)C12CC2	growth	%	2.13

---

Test system: SK-MEL-5 melanoma
Experiment: NCI-60 one-dose screen, 48 h
Settings: 10 µM
Description: Growth inhibition of the SK-MEL-5 human tumor cell line is measured as a screen for anti-cancer activity. Cells are grown in 96 well plates and exposed to the test compound for 48 hours. Compounds are tested at a single concentration, which is 10^-5 M for most compounds. The reported endpoint is percent growth (GI% or GIPRCNT), where numbers from 0 - 100% represent growth inhibition, and numbers from -100% - 0 represent cell death. For example, a value of 40 represents 60% growth inhibition. […]
About 83,000 compounds went through this panel and 20% of them were active in at least one assay; those are over-represented in the sample as a whole. The source made the active and inactive calls. How the source made its calls: active means growth percent below 10; inactive means the rest.
Possible outcomes: yes (1) for active, no (0) for inactive

compound	system.under.test	group
CC(C)=CCc1c2c(c(O)c3c1O[C@]14C(=C[C@@H]5C[C@H]1C(C)(C)O[C@@]4(C/C=C(/C)C(=O)O)C5=O)C3=O)C=CC(C)(C)O2	SK-MEL-5 melanoma	yes (1)
C[C@@H]1CCC/C=C/[C@H]2C[C@@H](O)C[C@@H]2[C@@H](O)/C=C/C(=O)O1	SK-MEL-5 melanoma	yes (1)
N#Cc1c(-n2c(Br)c(Br)c3cc(Br)ccc32)[nH]c2c(Br)cc(Br)cc12	SK-MEL-5 melanoma	yes (1)
CN1C(=O)[C@]23SSC1(C)C(=O)N2[C@H]1Nc2ccccc2C1([C@@]12c4ccccc4N[C@@H]1N1C(=O)C4(C)SS[C@]1(C(=O)N4C)[C@H]2O)[C@@H]3O (stereo partly drawn)	SK-MEL-5 melanoma	yes (1)
CN(CCF)/N=N/c1nc[nH]c1C(N)=O	SK-MEL-5 melanoma	no (0)
C=C1[C@@H](C)C2[C@H](Cc3ccccc3)NC(=O)[C@]23[C@H](OC(C)=O)/C=C/[C@@](C)(O)C(=O)[C@@H](C)C/C=C/[C@H]3[C@@H]1O (stereo partly drawn)	SK-MEL-5 melanoma	no (0)
N#Cc1nc(-c2ccccc2)oc1N1CCC(S(=O)(=O)F)CC1	SK-MEL-5 melanoma	no (0)
COc1cccc2c1cc([N+](=O)[O-])c1c(C(=O)O)cc3c(c12)OCO3	SK-MEL-5 melanoma	no (0)
